Reported log10 of IC50 values for the following compounds.
- System: right ventricular papillary muscle of guinea pig
- assay-protocol: Activity on the action potential duration of the right ventricular papillary muscle of guinea pig (potassium channel activating effect)
- Type: cell-based, guinea pig (Hartley)
- recorded-conditions: Cavia porcellus, 0.5 h, 1 Hz, 36 ±0.5° C., 30 minutes each concentration, read-out: Concn. at which APD90 is shortened to 50% of the initial one IC50 (converted)
// stored as log10 of IC50 expressed in nM

Answered cases to consult:
Please report the recorded log10 of IC50 for CNC(=S)C1(c2ccc3nccn3c2)CCCCC1=NOCc1ccccc1 (stereo not shown) .
2.31

Another compound: CNC(=S)C1(n2cnc([N+](=O)[O-])c2)CCCCC1OC(=O)c1ccccc1 (stereo not shown)
2.68

Another compound: CNC(=S)C1(c2ccc3nc(C)cn3c2)CCCCC1=O (single isomer, unassigned; (-))
2.88

Another compound: CNC(=S)C1(c2ccc3nccn3c2)CCCCC1=O (single isomer, unassigned; (-))
3.42

Another compound: CNC(=S)C1(n2cnc([N+](=O)[O-])c2)CCCCC1OCc1ccccc1 (stereo not shown)
1.71

Another compound: CNC(=S)C1(c2ccc3nccn3c2)CCCCC1OCc1ccccc1 (stereo not shown)
0.95

Could you now consider this next compound?
Please report the recorded log10 of IC50 for CNC(=S)C1(n2cnc([N+](=O)[O-])c2)CCCCC1=NOCc1ccccc1 (stereo not shown) .
2.17

----------
- System: rat aorta
- assay-protocol: Vasohypotonic activity on rat aorta specimen (inhibition of KCl-induced tension)
- Format: cell-based, rat (SD)
- recorded-conditions: rat aorta spiral specimen, 20 mM KCl, 30° C., KCl tension = 100%
quantity-measured: pIC50
# pIC50: negative log10 of molar concentration; output just the value

Answered cases to consult:
Please report the recorded pIC50 for CNC(=S)C1(c2ccc3nccn3c2)CCCCC1OCc1ccccc1 (centres unmarked) [Compound 5] .
9.45

Another molecule: CNC(=S)C1(c2ccc3nccn3c2)CCCC[S+]1[O-] (centres unmarked) [Compound 8]
7.26

Another molecule: CNC(=S)C1(c2ccc3nc(C(F)(F)F)cn3c2)CCCCC1=O (single isomer, unassigned; (-)) [Compound 12]
7.70

***
Please report the recorded pIC50 for CNC(=S)C1(c2ccc3nc(C)cn3c2)CCCC[S+]1[O-] (single isomer, unassigned; (-)) [Compound 13] .
7.70

Another molecule: CNC(=S)C1(c2ccc3nccn3c2)CCCCC1=O (single isomer, unassigned; (-)) [Compound 1]
7.73

Another molecule: CNC(=S)C1(c2ccc3nccn3c2)CCCCC1OC(=O)c1ccccc1 (single isomer, unassigned; (-)) [Compound 4]
9.24

Another molecule: CNC(=S)C1(n2cnc([N+](=O)[O-])c2)CCCCC1OCc1ccccc1 (centres unmarked) [Compound 10]
9.31

Another molecule: CNC(=S)C1(n2cnc([N+](=O)[O-])c2)CCCCC1OC(=O)c1ccccc1 (centres unmarked) [Compound 9]
7.96

----------
Reported IC50 values for the following compounds.
- System: rat aorta
- assay-protocol: Vasohypotonic activity on rat aorta specimen (inhibition of KCl-induced tension)
- Format: cell-based, rat (SD)
- recorded-conditions: rat aorta spiral specimen, 20 mM KCl, 30° C., KCl tension = 100%
Expressed in nM, but write only the number.

Answered cases to consult:
Please report the recorded IC50 for CNC(=S)C1(c2ccc3nccn3c2)CCCCC1NCc1ccccc1 (stereo not shown) [Compound 7] .
1.78

Another compound: CNC(=S)C1(n2cnc([N+](=O)[O-])c2)CCCCC1=NOCc1ccccc1 (stereo not shown) [Compound 11]
0.55

Another compound: CNC(=S)C1(c2ccc3nc(C)cn3c2)CCCCC1=O (single isomer, unassigned; (-)) [Compound 3]
6.17

Could you now consider this next compound?
Please report the recorded IC50 for CNC(=S)C1(c2ccc3nccn3c2)CCCCC1=NOCc1ccccc1 (stereo not shown) [Compound 6] .
1.91
